assay remarks: Metabolic stability in human hepatic microsome
Format: in vitro ADME
run parameters: human, microsomes, pH 7.4, CL NADPH(+)
Positions of bridges follow the written chain, without caps; N, C: chain ends. Non-standard residues stand in square brackets, D forms with d. Residues, ends and D or L forms follow the SMILES beside them. *: point of attachment. NMeF = CN[C@@H](Cc1ccccc1)C(=O)O; NMeI = CC[C@H](C)[C@H](NC)C(=O)O; NMeL = CN[C@@H](CC(C)C)C(=O)O; NMeA = CN[C@@H](C)C(=O)O; Piperidide = C1CCN(*)CC1; Sar = CNCC(=O)O; tBu = CC(C)(C)*
readout type: microsomal CLint at 1 uM (µL/min/mg)
Please respond with the number in µL/min/mg and leave the unit unwritten.

Ask: Report microsomal CLint at 1 uM for CC[C@H](C)[C@H]1C(=O)N[C@@H]([C@@H](C)O)C(=O)N(C)[C@@H](C)C(=O)N(C)[C@@H](CC(C)C)C(=O)N[C@H](C(=O)N2CCCCC2)CC(=O)N(C)CC(=O)N(C)[C@@H](CC(C)C)C(=O)N[C@@H](CC(C)C)C(=O)N(C)[C@@H](Cc2ccccc2)C(=O)N[C@@H](COC(C)(C)C)C(=O)N(C)[C@@H](Cc2ccccc2)C(=O)N1C [DP-69] ([Sar][NMeL]L[NMeF]S(tBu)[NMeF][NMeI]T[NMeA][NMeL]D-Piperidide; lactam N-11) please.
Reply: 68

###

assay remarks: Metabolic stability in human hepatic microsome
Type: in vitro ADME
run parameters: human, microsomes, pH 7.4, CL NADPH(+)
Positions of bridges follow the written chain, without caps; N, C: chain ends. Non-standard residues stand in square brackets, D forms with d. Residues, ends and D or L forms follow the SMILES beside them. ξ: configuration not given here. *: point of attachment. Phe(4-CF3) = N[C@@H](Cc1ccc(C(F)(F)F)cc1)C(=O)O; NMePhe(3-Cl) = CN[C@@H](Cc1cccc(Cl)c1)C(=O)O; NMeF = CN[C@@H](Cc1ccccc1)C(=O)O; NMeI = CC[C@H](C)[C@H](NC)C(=O)O; NMeξIle = CC[C@H](C)C(NC)C(=O)O; NMeL = CN[C@@H](CC(C)C)C(=O)O; NMeV = CN[C@H](C(=O)O)C(C)C; NMeA = CN[C@@H](C)C(=O)O; Piperidide = C1CCN(*)CC1; β3hA = C[C@H](N)CC(=O)O; ξL = CC(C)CC(N)C(=O)O; Sar = CNCC(=O)O
Measured microsomal CLint at 1 uM values are reported for all entries that follow.
Please respond with the number in µL/min/mg and leave the unit unwritten.

INSERT INTO results (molecule, readout_value) VALUES
  ('CC[C@H](C)C1C(=O)N(C)[C@@H](Cc2ccccc2)C(=O)N[C@H](C(=O)N2CCCCC2)CC(=O)N(C)CC(=O)NC(CC(C)C)C(=O)N(C)[C@@H](Cc2ccccc2)C(=O)N(C)[C@@H](CC(C)C)C(=O)N[C@@H](C)C(=O)N(C)[C@@H](C(C)C)C(=O)N(C)[C@@H](C)C(=O)N[C@@H]([C@@H](C)O)C(=O)N(C)CC(=O)N1C (stereo partly drawn) [DP-64] ([Sar][ξL][NMeF][NMeL]A[NMeV][NMeA]T[Sar][NMeξIle][NMeF]D-Piperidide; lactam N-12)', 25);

Ask: Report microsomal CLint at 1 uM for CC[C@H](C)[C@H]1C(=O)NCC(=O)N(C)[C@@H](C)C(=O)N[C@@H](CC(C)C)C(=O)N[C@@H](C)CC(=O)N(C)[C@@H](C)C(=O)N[C@@H](CC(C)C)C(=O)N(C)[C@@H](C)C(=O)N[C@@H]([C@@H](C)O)C(=O)N2CCC[C@H]2C(=O)N(C)[C@@H](Cc2cccc(Cl)c2)C(=O)N[C@@H](Cc2ccc(C(F)(F)F)cc2)C(=O)N1C [DP-810] (cyclo(G[NMeA]L[β3hA][NMeA]L[NMeA]TP[NMePhe(3-Cl)][Phe(4-CF3)][NMeI])) please.
Reply: 46

###

assay remarks: Metabolic stability in human hepatic microsome
Assay type: in vitro ADME
run parameters: microsomes, pH 7.4; human hepatic microsome, NADPH(+); read-out: CL NADPH(+)
Positions of bridges follow the written chain, without caps; N, C: chain ends. Non-standard residues stand in square brackets, D forms with d. Residues, ends and D or L forms follow the SMILES beside them. *: point of attachment. NMeF = CN[C@@H](Cc1ccccc1)C(=O)O; NMeI = CC[C@H](C)[C@H](NC)C(=O)O; NMeL = CN[C@@H](CC(C)C)C(=O)O; NMeV = CN[C@H](C(=O)O)C(C)C; NMeA = CN[C@@H](C)C(=O)O; Piperidide = C1CCN(*)CC1; β3hA = C[C@H](N)CC(=O)O; Sar = CNCC(=O)O
readout type: microsomal CLint at 1 uM (µL/min/mg)
Please respond with the number in µL/min/mg and leave the unit unwritten.

INSERT INTO results (molecule, units_label, readout_value) VALUES
  ('CC(C)C[C@@H]1NC(=O)[C@H](C)NC(=O)C[C@H](C)NC(=O)[C@H](Cc2ccccc2)N(C)C(=O)[C@H](CC(C)C)N(C)C(=O)[C@H](C)NC(=O)[C@H](Cc2ccccc2)N(C)C(=O)[C@H](CC(C)C)N(C)C1=O [DP-798] (cyclo(AL[NMeL][NMeF]A[NMeL][NMeF][β3hA]))', 'µL/min/mg', 1540),
  ('CC[C@H](C)[C@@H]1NC(=O)[C@H](CC(C)C)N(C)C(=O)CN(C)C(=O)[C@H]([C@@H](C)O)NC(=O)[C@H](Cc2ccccc2)N(C)C(=O)[C@H](CC(C)C)N(C)C(=O)[C@H](C)N(C)C(=O)C[C@@H](C(=O)N2CCCCC2)NC(=O)[C@H](CC(C)C)N(C)C1=O [DP-342] ([NMeA][NMeL][NMeF]T[Sar][NMeL]I[NMeL]D-Piperidide; lactam N-9)', 'µL/min/mg', 121);

Ask: Report microsomal CLint at 1 uM for CC[C@H](C)[C@H]1C(=O)N[C@H](C(=O)N2CCCCC2)CC(=O)N[C@H](C)C(=O)N[C@@H](Cc2ccccc2)C(=O)N(C)[C@@H](C)C(=O)N(C)[C@@H](C(C)C)C(=O)N[C@@H]([C@@H](C)O)C(=O)N(C)CC(=O)N(C)[C@@H](CC(C)C)C(=O)N[C@@H](C)C(=O)N1C [DP-135] ([dA]F[NMeA][NMeV]T[Sar][NMeL]A[NMeI]D-Piperidide; lactam N-10) please.
Reply: 15

###

assay remarks: PAMPA (parallel artificial membrane permeability assay)
Type: in vitro ADME
run parameters: PAMPA; membrane permeation rate (Pe); 50 mM MOPSO buffer pH 6.5 with 5.0% glycocholic acid, 37° C., 18 hours; read-out: iPAMPA Pe
Positions of bridges follow the written chain, without caps; N, C: chain ends. Non-standard residues stand in square brackets, D forms with d. Residues, ends and D or L forms follow the SMILES beside them. *: point of attachment. NMeF = CN[C@@H](Cc1ccccc1)C(=O)O; NMeI = CC[C@H](C)[C@H](NC)C(=O)O; NMeL = CN[C@@H](CC(C)C)C(=O)O; NMeA = CN[C@@H](C)C(=O)O; Piperidide = C1CCN(*)CC1; Sar = CNCC(=O)O
readout type: Papp at 18 hours, 50 µM (×10⁻⁶ cm/s)
Please respond with the number in ×10⁻⁶ cm/s and leave the unit unwritten.

INSERT INTO measurements (compound, readout_type, units_label, readout_value) VALUES
  ('CC(C)C[C@H]1C(=O)N(C)[C@@H](C)C(=O)N(C)[C@@H](Cc2ccccc2)C(=O)N[C@@H]([C@@H](C)O)C(=O)N(C)CC(=O)N(C)[C@@H](Cc2ccccc2)C(=O)N(C)[C@@H](CC(C)C)C(=O)N[C@@H](C)C(=O)N[C@H](C(=O)N2CCCCC2)CC(=O)N(C)[C@@H](C)C(=O)N(C)[C@@H](C)C(=O)N1C [DP-482] ([NMeA][NMeA][NMeL][NMeA][NMeF]T[Sar][NMeF][NMeL]AD-Piperidide; lactam N-11)', 'Papp at 18 hours, 50 µM', '×10⁻⁶ cm/s', 3.7);

// switching to the query compound
Ask: Report Papp at 18 hours, 50 µM for CC[C@H](C)[C@H]1C(=O)N[C@@H](CC(C)C)C(=O)N(C)[C@@H](C)C(=O)N(C)[C@@H](Cc2ccccc2)C(=O)NCC(=O)N[C@@H]([C@@H](C)O)C(=O)N[C@@H](Cc2ccccc2)C(=O)N(C)[C@@H](CC(C)C)C(=O)N2CCC[C@H]2C(=O)N[C@H](C(=O)N2CCCCC2)CC(=O)N[C@H](C(C)C)C(=O)N[C@@H](CC(C)C)C(=O)N1C [DP-218] ([dV]L[NMeI]L[NMeA][NMeF]GTF[NMeL]PD-Piperidide; lactam N-12) please.
Reply: 33
